Measure: Ki

State Ki on human CB1 (hCB1) (Homo sapiens, UniProt P21554). Entry: CCCCOc1c(OC)ccc2cc(C(=O)NCC(F)c3ccccc3)c(=O)[nH]c12 (stereo not shown)
Sequence (P21554 whole entry): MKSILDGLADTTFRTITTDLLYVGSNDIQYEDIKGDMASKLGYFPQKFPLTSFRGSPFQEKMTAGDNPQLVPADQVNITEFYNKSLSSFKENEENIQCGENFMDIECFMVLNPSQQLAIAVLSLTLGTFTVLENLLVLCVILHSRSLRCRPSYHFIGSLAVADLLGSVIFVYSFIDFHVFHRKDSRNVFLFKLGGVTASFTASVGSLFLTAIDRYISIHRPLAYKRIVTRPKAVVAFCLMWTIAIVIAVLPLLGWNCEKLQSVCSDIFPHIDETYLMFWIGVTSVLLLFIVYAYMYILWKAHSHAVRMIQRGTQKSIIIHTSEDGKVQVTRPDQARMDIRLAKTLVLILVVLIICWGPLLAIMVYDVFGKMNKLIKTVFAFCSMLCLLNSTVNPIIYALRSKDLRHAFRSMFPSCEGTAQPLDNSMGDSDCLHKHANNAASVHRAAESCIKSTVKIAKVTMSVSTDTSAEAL
> 10 µM
